- system: T1, TP-51 peptide (human)
- T1 construct: Synthetic peptide from Pepscan; also called synthetic TDP-43 peptide (TP-51)
- T1 peptide: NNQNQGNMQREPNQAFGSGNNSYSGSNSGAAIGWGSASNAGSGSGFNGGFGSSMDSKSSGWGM
- assay.protocol: SPR Biacore 8K, mAb captured by anti-human antibody, TP-51 injected, single-cycle kinetics
property.name: kon (M⁻¹ s⁻¹)
Please state the figure in M⁻¹ s⁻¹; there is no need to write the unit.

Illustrative cases are given below, each with its answer.
binder	unit.abbreviation	kon
hACI-7069-633B12-Ab1_H28L23 (antibody, V domains shown) VH: EVQLVQSGAEVKKPGATVKISCKVSGFTFTEYSMHWVQQAPGKGLEWMGGINPNNGGTSYNQKFKGRVTITADTSTDTAYMELSSLRSEDTAVYYCARESWGQGTTVTVSS VL: DVVMTQSPLSLPVTPGEPASISCKSSQSLLHSDGKTYLNWLLQKPGQSPQRLIYLVSKLDSRVPDRFSGSGSGTDFTLKISRVEAEDVGVYYCWQGTHFPHTFGQGTKLEIK	M⁻¹ s⁻¹	65000
hACI-7069-633B12-Ab1_H33L26 (antibody, V domains shown) VH: EVQLVQSGAEVKKPGATVKISCKVSGFTFTEYSMHWVQQAPGKGLEWMGGINPNNGGTSYNQKFQGRVTITADTSTDTAYMELSSLRSEDTAVYYCARESWGQGTTVTVSS VL: DIVMTQSPLSLPVTPGEPASISCKSSQSLLHSDAKTYLNWLLQKPGQSPQRLIYLVSKLDSRVPDRFSGSGSGTDFTLKISRVEAEDVGVYYCFQGTHFPHTFGQGTKLEIK	M⁻¹ s⁻¹	160000
hACI-7069-633B12-Ab1_H28L22 (antibody, V domains shown) VH: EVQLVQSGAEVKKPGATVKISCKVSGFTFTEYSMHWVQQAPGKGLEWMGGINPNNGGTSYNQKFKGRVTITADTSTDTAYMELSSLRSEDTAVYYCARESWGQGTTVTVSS VL: DIVMTQSPLSLPVTPGEPASISCKSSQSLLHSDGKTYLNWLLQKPGQSPKRLIYLVSKLDSRVPDRFSGSGSGTDFTLKISRVEAEDVGVYYCWQGTHFPHTFGQGTKLEIK	M⁻¹ s⁻¹	58000

Input hACI-7069-633B12-Ab1_H32L26 (antibody, V domains shown) VH: EVQLVQSGAEVKKPGATVKISCKVSGFTFTEYSMHWVQQAPGKGLEWMGGINPQNAGTSYNQKFQGRVTITADTSTDTAYMELSSLRSEDTAVYYCARESWGQGTTVTVSS VL: DIVMTQSPLSLPVTPGEPASISCKSSQSLLHSDAKTYLNWLLQKPGQSPQRLIYLVSKLDSRVPDRFSGSGSGTDFTLKISRVEAEDVGVYYCFQGTHFPHTFGQGTKLEIK . Output kon: 120000

Input hACI-7069-633B12-Ab1_H27L23 (antibody, V domains shown) VH: EVQLVQSGAEVKKPGATVKISCKVSGFTFTEYSMHWVQQAPGKGLEWMGGINPNNGGTSYNQKFKGRVTITVDTSTDTAYMELSSLRSEDTAVYYCARESWGQGTTVTVSS VL: DVVMTQSPLSLPVTPGEPASISCKSSQSLLHSDGKTYLNWLLQKPGQSPQRLIYLVSKLDSRVPDRFSGSGSGTDFTLKISRVEAEDVGVYYCWQGTHFPHTFGQGTKLEIK . Output kon: 42000
